apparent KD of K4 kissing-loop reporter overview
# Test system: K4 kissing-loop RNA reporter;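 note: bound reporter read as fluorescence of individual clusters on recovered sequencing chips by microscopy, with normalized cluster intensities fitted with a binding model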
# TEST METHOD NOTES: apparent KD of K4 kissing-loop reporter; higher = weaker reporter binding
# STATED CONDITIONS: Eterna round: R107; input ligand: arginine 13.2 mM
Please answer using a numeric value trailed by its unit.

Reference set, count: 4
GGAGUCCCGUUAGAUUGUGUAGAUACAAGACGAGGACCGGUACGGCCGCCACUCGCCAUCGUCCAGUGAUGUUGGGCGUCACGGG [theeternabot_sameState_KL_Trp_A_30]; 179 nM
AAGGUUGUGCAUGGGAGUGAUGUUCCCAAGCAGGAUAUCGCUCACGCGAGAAGGGCUAGCACAACCGCUCAAGAAACUUGAGCAA [Omei KL FMN A SS C v5]; 118 nM
CGGAUGUAGUGAUGUUAUAUUAGAUGUAGACGAGGACCGGUACGGCCGCCACUCGUGACGGCUGCUAGCGCGUUGCGAGGUGUGC [ExTryptoA.Cm]; 575 nM
ACAUCGGUUGAGAGUGAUGUUCCUUGUGUUCGAGGACCGGUACGGCCGCCACUCGGGUAGAAAAUAACAGAUGUGUUUCAUUUUU [BDazzled - #17 SS Tryptophan A]; 93.2 nM

Query AAGGCGUCGAGUUUGGUGGCGCCAACAGAUACCAGAUUACCUCCAAUCCCUUGGCAGCUGGCUUGAGAGUGAUGUUUUCAAAAGU [theeternabot_sameState_KL_Theo_A_33] yields apparent KD of K4 kissing-loop reporter of 447 nM

Query AGACUACUGAUAGGAUAUAACAUACUACCUCGUAUACCAAAGGUAUACGAGGCCCUUCUAGUGAUGUUAGAAGGGUCGGUAGUCA [Omei KL FMN B Exc B v5] yields apparent KD of K4 kissing-loop reporter of 76.4 nM

Query GGAUAGGACAGAGGAUAUCCUUGAGGCAAGAAACUUGUCUCUAAAGGAUGAAUCCUAGUGAUGUUAGGAGAAGGCUGUCCUAUCG [FmnBX 14 - #SwitchBubble #StaticStem #Palindromic] yields apparent KD of K4 kissing-loop reporter of 82.2 nM

Query UUUCCAGUGAUGUUGGAGAAAACCGAGGAAGGAGCGGACUCUUGUCCAGGUAGGUCGCCUCGUCUCCCAUUGGCAGAGCGGACCC [Enlaonbian] yields apparent KD of K4 kissing-loop reporter of 239 nM

Query GUAGACGUGCCUUCAGUGAUGUUGAAGGAUACCAGAUGUUACCACAUCCCUUGGCAGCCUUGGGAUAACAGUGAGUCGGUAUAUG [Ontierso] yields apparent KD of K4 kissing-loop reporter of 200 nM

Query AGUGAUGUUGUGUGAUGUUAGUGAAGUGAUCGAGGACCGGUACGGCCGCCACUCGAGUGAUGAGUGAGUGAUGUUUGUUUAGUGG [#17 K4 Tryptophan A Same State] yields apparent KD of K4 kissing-loop reporter of 124 nM

Query GUGCAGUGAUGUUGCACGAGGAAAGACGAUACCAGCCGUAAAUAAGGCCCUUGGCAGCGUAGGCUAGCAUAAAGCAUGCUAGUCC [Edeson] yields apparent KD of K4 kissing-loop reporter of 98.8 nM

Query ACCUCACAGUGAUGUUGUGAGCCGAUAGUGAAGGAUAUUGUAAAGUCAAGAAGGUCAUGUCAGUCACAAAACGUUAAGCCUCGCA [theeternabot_exclusion_KL_FMN_A_19] yields apparent KD of K4 kissing-loop reporter of 218 nM

Query GGUCGAGUGAUGUUCGAUGUUAUGCAUUCAGAGGAUAUAGGAUUAGCUAGAAGGCUGAAUCAAUCUUCGAGUGAUGUUCGAGGAU [Same State FMN A GF 9] yields apparent KD of K4 kissing-loop reporter of 108 nM

Query GGGAGGAGUGGUGUUGAUUAGGGAGCGGAAGGAGCGCCGAGGAAGGCAGGUAGGUCGCCGGAUUAUAGUGAUGUUAUGAAGAGGG [ExArg.J] yields apparent KD of K4 kissing-loop reporter of 716 nM

Query AAUAAAAUCACGGCCGCCACUGAUUAUUUUAUUAGGAGUGAUGUUCCUAUGACAGUAUGCCUUAACAGGACCGGGUGAAUAUUUA [#19 K4 Tryptophan B Exclusion] yields apparent KD of K4 kissing-loop reporter of 125 nM

Query AGUGAUGUUGAGUUAUGUUAGUGAAGUGAUCGAGGACCGGUACGGCCGCCACUCGAGUGAUGAGUGAGUGAUGUUUGUUUAGUGA [bvbmullin] yields apparent KD of K4 kissing-loop reporter of 487 nM

Query CCUGCUACGUAAGGAUAUGGAAAUGAGUGAUGUUUAGAGAUAUGGUCCAGGUUUAGUCAUCAUAGACCAGAAGGUACAUCGGGCG [theeternabot_exclusion_KL_FMN_B_8] yields apparent KD of K4 kissing-loop reporter of 321 nM

Reference source for all entries: the supplement of paper PMC9170038
